TARGET OF ASSAY: T1, CD47 protein (Acrobiosystems, cat #CD7-HA2E9) (UniProt Q08722 19-139)
T1 construct: Bought recombinant protein coated on the ELISA plate at 100 ng/well; also called CD47 antigen; CD47 peptide
T1 sequence (Q08722 19-139 limits assumed): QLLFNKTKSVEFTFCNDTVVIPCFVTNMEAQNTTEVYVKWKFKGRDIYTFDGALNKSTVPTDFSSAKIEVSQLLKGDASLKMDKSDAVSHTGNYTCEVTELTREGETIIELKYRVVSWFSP
PROTOCOL DESCRIPTION: ELISA, CD47 protein coated 100 ng/well, 0.8 µg antibody per well
Protocol: The purified 0.8 μg humanized antibody was treated in each well, and then reacted at room temperature for 2 hours, and then washed 3 times with 1×PBST. […] Finally, the reaction was terminated by treatment with a stop solution of 1 N H₂SO₄, and then the absorbance was measured at 450 nm.
Recorded OD450 measurements values for a group of binders are listed next.

BINDER: Hu3A5(V16) antibody (antibody, V domains shown) VH: QVQLVQSGSELKKPGASVKVSCKASGYTFTSYWMNWVRQAPGQGLEWMGVIDPSDSYTSYNQGFTGRFVFSVDTSVSTAYLQISSLKAEDTAVYYCARGGKRAMDYWGQGTTVTVSS VL: DVVMTQSPDSLAVSLGERATINCKSSQSLVHSNGNTYLHWYQQKPGQPPKLLIYKVSNRFSGVPDRFSGSGSGTDFTLTISSLQAEDVAVYYCSQSTHVPFTFGGGTKLEIK
OD450 measurements / OD450: 0.106
//
BINDER: Hu3A5(V1) antibody (antibody, V domains shown) VH: EVQLVQSGAEVKKPGASVKVSCKASGYTFTSYWMHWMRQAPGQGLEWIGVIDPSDSYTSYNQKFQGRVTLTVDTSTSTAYMELSSLRSEDTAVYYCARGGKRAMDYWGQGTTVTVSS VL: DVVMTQSPLSLPVTLGQPASISCRSSQSLVHSNGNTYLHWFQQRPGQSPRLLIYKVSNRFSGVPDRFSGSGSGTDFTLKISRVEAEDVGVYFCSQSTHVPFTFGGGTKLEIK
OD450 measurements / OD450: 2.58
//
BINDER: Hu3A5 (V4) antibody (antibody, V domains shown) VH: EVQLVQSGAEVKKPGASVKVSCKASGYTFTSYWMHWMRQAPGQGLEWIGVIDPSDSYTSYNQKFQGRVTLTVDTSTSTAYMELSSLRSEDTAVYYCARGGKRAMDYWGQGTTVTVSS VL: DVVMTQSPDSLAVSLGERATINCKSSQSLVHSNGNTYLHWYQQKPGQPPKLLIYKVSNRFSGVPDRFSGSGSGTDFTLTISSLQAEDVAVYYCSQSTHVPFTFGGGTKLEIK
OD450 measurements / OD450: 2.74
//
BINDER: Hu3A5 (V3) antibody (antibody, V domains shown) VH: EVQLVQSGAEVKKPGASVKVSCKASGYTFTSYWMHWMRQAPGQGLEWIGVIDPSDSYTSYNQKFQGRVTLTVDTSTSTAYMELSSLRSEDTAVYYCARGGKRAMDYWGQGTTVTVSS VL: DVVMTQSPDSLAVSLGERATINCKSSQSLVHSNGNTYLHWYQQKPGQPPKLLIYKVSNRFSGVPDRFSGSGSGTDFTLTISSLQAEDVAVYFCSQSTHVPFTFGGGTKLEIK
OD450 measurements / OD450: 2.54
